- SYSTEM NAME: alpha-1A adrenoceptors expressed in CHO-K1 cells (clone 13) (Homo sapiens, UniProt P35348)
- Construct: expressed in transfected cells; host or cells: CHO-K1 (clone 13)
- Sequence (P35348 whole entry): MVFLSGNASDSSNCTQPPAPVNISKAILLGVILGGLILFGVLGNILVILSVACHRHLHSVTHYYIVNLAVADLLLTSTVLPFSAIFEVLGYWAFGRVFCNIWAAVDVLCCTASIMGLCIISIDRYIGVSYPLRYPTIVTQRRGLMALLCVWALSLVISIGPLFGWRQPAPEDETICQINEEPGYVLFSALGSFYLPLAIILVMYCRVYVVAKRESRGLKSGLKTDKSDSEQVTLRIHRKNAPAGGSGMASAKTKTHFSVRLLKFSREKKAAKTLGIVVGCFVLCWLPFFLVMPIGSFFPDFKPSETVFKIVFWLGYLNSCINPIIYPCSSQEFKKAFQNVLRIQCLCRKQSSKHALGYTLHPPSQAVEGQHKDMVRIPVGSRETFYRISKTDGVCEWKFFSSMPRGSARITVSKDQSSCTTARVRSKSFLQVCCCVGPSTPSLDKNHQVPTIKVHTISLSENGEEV
- ASSAY METHOD TEXT: Functional assay for alpha-1A/L agonist activity (FLIPR, Fluo-3 intracellular calcium)
- Assay type: cell-based
- MEASUREMENT PARAMETERS: maximum response relative to full agonist norepinephrine bitartrate; CHO-K1 alpha-1A cells
Assign class by IA (intrinsic activity): not lower than 1 means label 1; lower than 1 means label 0.

Use these answered entries as a reference point.
>>> df
                           structure_string  assigned_category
0        CS(=O)(=O)c1cn(CC2=NCCN2)c2ccccc12            label 1
1  Cc1c(S(C)(=O)=O)c2c(S(C)(=O)=O)cccc2n1CC1=NCCN1            label 1
2  Cc1ccc2c(c1)c(S(C)(=O)=O)c(C)n2CC1=NCCN1.Cl            label 0
3  COc1ccc2c(S(C)(=O)=O)c(C)n(CC3=NCCN3)c2c1            label 1
4  Cc1c(S(C)(=O)=O)c2ccc(S(C)(=O)=O)cc2n1CC1=NCCN1            label 0

Turning to the following compound.
Q. Evaluate Cc1c(S(C)(=O)=O)c2cccc(C(F)(F)F)c2n1CC1=NCCN1 : IA (intrinsic activity) at minimum 1?
A. label 0
